B1: Pistol ribozyme (parent)
chain: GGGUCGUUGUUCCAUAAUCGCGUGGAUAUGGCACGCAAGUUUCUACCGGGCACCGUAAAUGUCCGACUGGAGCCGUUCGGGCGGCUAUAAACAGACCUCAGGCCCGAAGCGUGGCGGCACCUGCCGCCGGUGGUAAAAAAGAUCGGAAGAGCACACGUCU

# Variants of: B1
# protocol: aptazyme ON/OFF ratio, guanine; higher = stronger switching; co-transcriptional cleavage with and without guanine
Exercise: for every item that follows, state its recorded aptazyme ON/OFF ratio.
Please reply with the value in numeric form only.

Input: Give the reported aptazyme ON/OFF ratio for this variant. U7C G9U U11C C12A C13A
Output: 1.15

Input: State its aptazyme ON/OFF ratio: U7G U8A U10C U11A C12G C13A
Output: 1.25

Input: Supply aptazyme ON/OFF ratio value. Item: U7C U8A G9A U10G U11A C12U C13U
Output: 1.06

Input: Identify measured aptazyme ON/OFF ratio corresponding to U7G G9U C12A C13G
Output: 1.33

Input: Assign aptazyme ON/OFF ratio to the following record: U7A U8C G9U U11G C12U C13G
Output: 1.14

Input: Give the reported aptazyme ON/OFF ratio for this variant. U7A U8A G9C U10G C12G C13U
Output: 1.22

Input: Please report aptazyme ON/OFF ratio for the following variant: U7G U8G G9C U10A U11A C13U
Output: 1.07

Input: Note down aptazyme ON/OFF ratio recorded for U7G U8G G9U U10C C12G C13U
Output: 1.25

Input: Report aptazyme ON/OFF ratio for U7C G9C U10G C12U
Output: 1.2

Input: Please indicate aptazyme ON/OFF ratio recorded for U8A U11G C12A
Output: 1.09

Input: Determine its reported aptazyme ON/OFF ratio: U7C U8A U10C U11A C12U C13U
Output: 1.16

Input: Read off the recorded aptazyme ON/OFF ratio for U7C G9C U10A U11G C13A
Output: 1.09

Input: For U7A U8G G9C U10G C12G C13U , write its aptazyme ON/OFF ratio.
Output: 1.44

Input: Specify reported aptazyme ON/OFF ratio for the variant shown: U7C U8G G9A U10A U11C C12A C13A
Output: 1.15
